Tested on: DeltatarO mutant
Assay: S. aureus survival, RN4220 and DeltatarO strains – OD600, teichoic acid synthesis inhibitors, primary screen (AID 463173)
Conditions: S. aureus RN4220 wild type/DeltatarO growth, OD600, 18 h, hits give low values, screened at 18.75 µg/mL (by protocol)
Among all 52,000 compounds or so, about 4,300 (8.3%) were called active. The entries come from a sample that favours actives as a whole.
measured_property: survival (%)
Your answer is read as %, so omit the unit and give the number.

Find the measured survival: item "CCc1ccccc1NC(=O)c1cnc(N2CCCCC2)c2ccccc12" , target or system DeltatarO mutant.
96

Find the measured survival: item "COc1ccc(CNCCSc2nnnn2-c2ccccc2)c(OC)c1" , target or system DeltatarO mutant.
49

Find the measured survival: item Cc1ccc(-c2c3c(=O)n(C)c(=O)n(C)c3c3n2-c2ccccc2NC3c2ccc(C)cc2O)cc1 (centres undefined) , target or system DeltatarO mutant.
2

Find the measured survival: item Cn1c(=O)c2c(-c3ccccc3)n3c(c2n(C)c1=O)C(c1cc(Cl)ccc1O)Nc1ccccc1-3 (centres undefined) , target or system DeltatarO mutant.
1

Find the measured survival: item "COc1ccc(Cl)cc1NC(=O)c1c(NCc2sccc2C)sc2c1CCCC2" , target or system DeltatarO mutant.
71

Find the measured survival: item Cc1ccc(C2Nc3ccccc3-n3c(-c4ccccc4)c4c(=O)n(C)c(=O)n(C)c4c32)o1 (centres undefined) , target or system DeltatarO mutant.
59

Find the measured survival: item "CCOCCc1nn2c(=O)cc(COC(=O)c3ccccc3NC(=O)c3cccs3)nc2s1" , target or system DeltatarO mutant.
58

Find the measured survival: item "COc1ccc(-c2nc3ccccc3n3c(-c4ccccc4)c4c(=O)n(C)c(=O)n(C)c4c23)cc1" , target or system DeltatarO mutant.
80

Find the measured survival: item "CNS(=O)(=O)c1cn(CC(=O)N2CCN(c3ccccc3F)CC2)cc1S(=O)(=O)NC" , target or system DeltatarO mutant.
71

###

Assign survival to each entry below.
System: DeltatarO mutant
Assay: S. aureus survival, RN4220 and DeltatarO strains – OD600, teichoic acid synthesis inhibitors, primary screen (AID 463173)
Details: S. aureus RN4220 wild type/DeltatarO growth, OD600, 18 h, hits give low values, screened at 18.75 µg/mL (by protocol)
Among all 52,000 compounds or so, about 4,300 (8.3%) were called active. Shown is part of a subset that was picked to be rich in actives.
Your answer is read as %, so omit the unit and give the number.

Name the recorded survival for "COc1cccc(N2CCN(S(=O)(=O)c3ccc4[nH]c5c(c4c3)CCCC5)CC2)c1" .
84

Name the recorded survival for "CCSc1ccccc1C(=O)N1CCN(c2nc3ccccc3s2)CC1" .
92

Name the recorded survival for "O=C(O)CSc1nc2c(c(C(F)(F)F)n1)CCc1ccccc1-2" .
96

Name the recorded survival for COC(=O)C1(CO)NC(c2ccccc2F)C2C(=O)N(c3ccccc3)C(=O)C21 (stereo unspecified) .
86

Name the recorded survival for "O=S(=O)(c1ccc(OC(F)(F)F)cc1)N1CCC(c2nc3ccccc3s2)CC1" .
65

Name the recorded survival for "Cc1nc(N=C(N)N)nc2cc3c(cc12)OCO3" .
91

###

Tested on: DeltatarO mutant
Test: S. aureus survival, RN4220 and DeltatarO strains – OD600, teichoic acid synthesis inhibitors, primary screen (AID 463173)
Conditions: S. aureus RN4220 wild type/DeltatarO growth, OD600, 18 h, screened at 18.75 µg/mL (by protocol)
Out of some 52,000 compounds screened, about 4,300 (8.3%) were called active. Cut-off read from the data, not from the text of the source: active = survival mostly below about 52% (no sharp cut-off); inactive = mostly above about 56%. Shown is part of a subset that was picked to be rich in actives.
Parameter call: string, one of active, inactive

Assay outcome for "Cc1ccc(Nc2nc3nonc3n3cnnc23)cc1Cl" : what was it?
inactive

Assay outcome for "O=c1[nH]c(Nc2nc3ccccc3o2)nc2ccccc12" : what was it?
inactive

Assay outcome for "Cc1cc(Nc2cccc(C(F)(F)F)c2)ncn1" : what was it?
inactive

Assay outcome for "O=C(NCCc1ccccc1)C1CCN(Cc2cc3ccccc3n2Cc2ccccc2)CC1" : what was it?
inactive

Assay outcome for "c1ccc(CSc2nc3ncccc3[nH]2)cc1" : what was it?
inactive

Assay outcome for "O=C(c1ccccc1)n1nnc2ccccc21" : what was it?
inactive

Assay outcome for "CCOc1ccc(OCC)c(NS(=O)(=O)c2ccc3c(c2)CCCN3C(C)=O)c1" : what was it?
inactive

Assay outcome for "Cc1cc(=O)oc2ccccc12" : what was it?
inactive

Assay outcome for "NS(=O)(=O)c1ccc(Nc2nc3nonc3nc2Nc2ccc(S(N)(=O)=O)cc2)cc1" : what was it?
inactive

Assay outcome for "O=C(Nc1cccc(C(F)(F)F)c1)c1cc(-c2ccc(Cl)cc2)on1" : what was it?
inactive

Assay outcome for "Cc1cccc(NC(=O)Cn2cc(C(=O)C3CCCCC3)c3ccccc32)c1C" : what was it?
inactive

Assay outcome for "Cc1ccc(Nc2nc3nonc3nc2Nc2cccc(C(F)(F)F)c2)cc1Cl" : what was it?
active

###

Test system: DeltatarO mutant
Test: S. aureus survival, RN4220 and DeltatarO strains – OD600, teichoic acid synthesis inhibitors, primary screen (AID 463173)
Settings: S. aureus RN4220 wild type/DeltatarO growth, OD600, 18 h, hits give low values, screened at 18.75 µg/mL (by protocol)
In all, about 52,000 compounds went through this assay and about 4,300 (8.3%) were called active. Only a selection was taken, and actives are over-represented in it overall.
Assign survival to each entry below.

Name the recorded survival for "Cc1cccn2c(Nc3ccccc3)c(-c3cccs3)nc12" .
89% (inactive)

Name the recorded survival for "Cc1ccc2nc(-c3ccsc3)c(Nc3ccc(Cl)cc3)n2c1" .
73% (inactive)

Name the recorded survival for "Cc1ccc(Nc2c(-c3ccsc3)nc3cccc(C)n23)cc1" .
25% (active)

Name the recorded survival for "Cc1cccc(C)c1Nc1c(-c2ccsc2)nc2cccc(C)n12" .
54% (inactive)

Name the recorded survival for "Cc1ccc(Nc2c(-c3ccc(O)cc3)nc3cccc(C)n23)cc1" .
84% (inactive)

Name the recorded survival for "O=C(Nc1ccc(N2CCOCC2)c(C(=O)O)c1)c1ccc(Br)cc1" .
8% (active)

Name the recorded survival for "O=C(Nc1ccc(N2CCC(N3CCCCC3)CC2)c(C(=O)O)c1)c1ccccc1" .
96% (inactive)

Name the recorded survival for "Cc1ccc(Nc2c(-c3ccc(N4CCOCC4)cc3)nc3c(C)cccn23)cc1" .
56% (inactive)

Name the recorded survival for "Cc1ccccc1Nc1c(-c2ccc(Cl)cc2)nc2c(C)cccn12" .
69% (inactive)

Name the recorded survival for "Cc1ccccc1Nc1c(-c2ccc(O)cc2)nc2c(C)cccn12" .
72% (inactive)

Name the recorded survival for "CC(=O)c1ccc(N2CCN(c3ccc(NC(=O)c4ccc(F)cc4)cc3C(=O)O)CC2)cc1" .
55% (inactive)

###

System: DeltatarO mutant
Experiment: S. aureus survival, RN4220 and DeltatarO strains – OD600, teichoic acid synthesis inhibitors, primary screen (AID 463173)
Details: S. aureus RN4220 wild type/DeltatarO growth, OD600, 18 h, hits give low values, screened at 18.75 µg/mL (by protocol)
In all, about 52,000 compounds went through this assay and about 4,300 (8.3%) were called active. The sample holds actives, similar compounds and a random draw of the others, so the mix is not that of the screen.
measured_property: survival (%)
Your answer is read as %, so omit the unit and give the number.

Name the recorded survival for "COC(=O)c1ccc(NS(=O)(=O)c2c(C)nc3sccn3c2=O)cc1" .
72

Name the recorded survival for "O=C(c1ccccc1Br)N(Cc1ccco1)Cc1ccco1" .
45

Name the recorded survival for "O=c1[nH]c(SCc2ccccc2)nc2c1CCCC2" .
57

Name the recorded survival for "CCOc1ccccc1C(=O)N(Cc1ccco1)Cc1ccco1" .
73

Name the recorded survival for "COc1cc(OC)c(NS(=O)(=O)c2c(C)nc3sc(C)cn3c2=O)cc1Cl" .
65

Name the recorded survival for COc1cc(NC(=O)CC2C(=O)N(c3ccc(Cl)cc3)C(=O)N2Cc2cccs2)cc(OC)c1 (configuration not stated) .
85

Name the recorded survival for "O=c1[nH]c(SCc2ccc(F)cc2)nc2c1CCCC2" .
63

Name the recorded survival for "Cc1ccc(CN(Cc2ccco2)C(=O)c2ccccc2Cl)o1" .
74

Name the recorded survival for "Cc1ccc(C(=O)N(Cc2ccc(N(C)C)cc2)Cc2ccco2)cc1" .
73

Name the recorded survival for "Cc1nc2sccn2c(=O)c1S(=O)(=O)Nc1cc(C(F)(F)F)ccc1Cl" .
69

Name the recorded survival for "COc1ccc(C(=O)N(Cc2ccco2)Cc2ccc(C)o2)cc1" .
71

Name the recorded survival for "CCN(CC)CCCNC(=O)c1sc2nc3n(c(=O)c2c1C)CCCCC3" .
111

Name the recorded survival for "COc1ccc(NS(=O)(=O)c2c(C)nc3scc(C)n3c2=O)cc1" .
90

Name the recorded survival for "O=c1[nH]c(SCc2ccc(Br)cc2)nc2c1CCCC2" .
52

Name the recorded survival for "COc1ccc(C(=O)N(Cc2ccco2)Cc2ccco2)cc1" .
58

Name the recorded survival for Cc1cc(C)c(S(=O)(=O)NCC(c2ccc(N(C)C)cc2)N2CCOCC2)c(C)c1 (configuration not stated) .
69

Name the recorded survival for "Cc1nc2sccn2c(=O)c1S(=O)(=O)Nc1ccc(N2CCN(C)CC2)cc1" .
106

Name the recorded survival for "Cc1cccc(Cn2cc(S(=O)(=O)c3cccc(C)c3)c(=O)c3cc(F)c(N4CCOCC4)cc32)c1" .
76

Name the recorded survival for "CC(C)(C)c1ccc(OCCSc2nc(-c3cccs3)nc3cc(=O)[nH]n23)cc1" .
78

Name the recorded survival for "COc1ccc(OC)c(NC(=O)Cn2cc(C(=O)c3cccs3)c3ccccc32)c1" .
50

Name the recorded survival for "CCc1ccc(CN(Cc2ccco2)C(=O)c2ccc(C)cc2)cc1" .
41

Name the recorded survival for CCCCC(CC)CNC(=O)CCCc1nnc2n(CCC)c(=O)c3sccc3n12 (configuration not stated) .
75
